These measurements were taken from the supplement of paper PMC4466140.

# Lookup of reported SPOT peptide array binding signal intensity keyed by entry
- System under test: CaBzz1-D1
- Test: SPOT peptide array binding signal intensity (averaged, normalized) (arbitrary units (background-subtracted, floor 0; scale differs between SH3 domains)); higher = stronger binding of the SH3 domain to the peptide
Reply with just the number.

Worked examples follow.
[
  {
    "Binder": "LFMKGTPEFPKSGFS",
    "Recorded measurement": 182
  },
  {
    "Binder": "VSKLRSPNTPRRLRK",
    "Recorded measurement": 156
  },
  {
    "Binder": "YLTRPLPSTPNEDSR",
    "Recorded measurement": 42
  }
]

Turning to the following binder.
IN: Which SPOT peptide array binding signal intensity value belongs to ERPKRRAPPPVPKKP ?
OUT: 6780
